These entries and their values trace back to patent US10517889B2.

Items are presented alongside their recorded % inhibition of SMAD7 mRNA expression.
- System: human SMAD7 mRNA
- procedureSummary: Antisense inhibition of human SMAD7 mRNA expression in Hep3B cells by 3-10-3 cEt gapmers, 10,000 nM, electroporation (Example 2)
- Type: cell-based
- conditionDescription: Hep3B cells, electroporation with 10,000 nM antisense oligonucleotide, approximately 24 hours, primer probe set RTS5062, relative to untreated control cells
Strand notation (5' to 3'): a small letter for the sugar, then the base; units joined by * are phosphorothioate-linked, units joined directly phosphodiester-linked; [ ] holds rarer units or linkages, { } end groups; capitals alone tell only the bases. k = constrained ethyl (cEt); [5mC] = 5-methylcytosine; d = 2'-deoxy (DNA)
Please answer in the form of a number followed by its unit of measurement.

Reference set (5 entries):
substance	% inhibition of SMAD7 mRNA expression
798654 (k[5mC]*k[5mC]*k[5mC]*dT*dG*d[5mC]*dG*d[5mC]*dG*dG*d[5mC]*dT*d[5mC]*kT*k[5mC]*k[5mC]; antisense) [compound 798654]	23%
799144 (antisense kT*kT*kG*dG*dG*dT*dT*dA*dT*dG*dA*d[5mC]*dG*kG*kA*k[5mC]) [compound 799144]	72%
798725 (antisense kT*k[5mC]*kG*d[5mC]*dA*d[5mC]*d[5mC]*dG*d[5mC]*d[5mC]*dT*dT*dG*k[5mC]*k[5mC]*k[5mC]) [compound 798725]	29%
799213 (kT*kG*kT*dT*dT*dA*dT*dA*d[5mC]*dA*d[5mC]*dA*dT*kT*kG*k[5mC]; antisense) [compound 799213]	42%
798775 (k[5mC]*k[5mC]*kT*d[5mC]*dT*dT*dG*dA*d[5mC]*dT*dT*d[5mC]*d[5mC]*kG*kA*kG; antisense) [compound 798775]	0%

From here, focus on the item given below.
Under human SMAD7 mRNA, report % inhibition of SMAD7 mRNA expression for 798788 (kT*k[5mC]*kT*dG*dG*dA*dG*dT*dA*dA*dG*dG*dA*kG*kG*kG; antisense) [compound 798788] 31%
